protocol text: plasma concentration of nikkomycin Z following continuous intravenous administration, HPLC/SPE
Type: in vivo, rat (outbred male albino, strain S/A)
cond: rat, plasma; 2 hour loading dose of 20 mg/kg/h, then 33 mg/kg/day intravenous
Protocol: The experimental animals were outbred male albino rats (strain S/A, Simonsen Laboratories, Gilroy, Calif.), 350-400 g average weight, housed one per cage, fed rodent chow and water ad libitum, and identified by ear tags. […] Nikkomycin Z was extracted from the plasma samples using solid phase extraction (SPE) columns. […] Following a drying and reconstitution step, nikkomycin Z plasma concentration was determined using reverse phase HPLC. […]
reported metric: Tmax (h)
Supply the numeric figure in h, leaving out any unit text.

GET /values?readout=Tmax&item= C[C@@H]([C@H](N)C(=O)N[C@H](C(=O)O)[C@H]1O[C@@H](n2ccc(=O)[nH]c2=O)[C@H](O)[C@@H]1O)[C@H](O)c1ccc(O)cn1 [nikkomycin Z] 1

---

protocol text: plasma levels after subcutaneous sustained release gel (PLURONIC F127) or single intravenous administration, HPLC
Format: in vivo
cond: rat, single intravenous administration, read-out: mean residence time (MRT), nikkomycin Z total compounds
reported metric: MRT (min)
Supply the numeric figure in min, leaving out any unit text.

GET /values?readout=MRT&item= C[C@@H]([C@H](N)C(=O)N[C@H](C(=O)O)[C@H]1O[C@@H](n2ccc(=O)[nH]c2=O)[C@H](O)[C@@H]1O)[C@H](O)c1ccc(O)cn1 [nikkomycin Z] 12
